# ASSAY_METHOD_TEXT: Photostability under ultraviolet light
# Type: physicochemical
# ASSAY_SETUP: first-level kinetic equation, read-out: Photolysis half life

LINE_NOTATION | UNIT | half-life at 9.986 μg/mL
COC(=O)N(OC)c1ccccc1COc1ccn(-c2ccc(Cl)cc2)n1 | min | 21
